System: GDF-5/type I collagen-induced chondrogenesis
Assay: Inhibitors of intracellular signaling mediators on GDF-5/type I collagen-induced chondrogenesis
Type: cell-based
Details: GDF-5 in the context of type I collagen
readout-name: inhibition of ligand-dependent chondrogenesis

O=C(O)CN(CCOCCOCCN(CC(=O)O)CC(=O)O)CC(=O)O = not
CCCC(=O)Nc1ncnc2c1ncn2[C@@H]1O[C@@H]2COP(=O)(O)O[C@H]2[C@H]1OC(=O)CCC = not
[Na+].[Na+].[Na+].[O]=[V]([O-])([O-])[O-] = not

The measured values listed here are drawn from patent US7070942B2.
